Kindly supply the reported GI50 values for the records listed here.
assay-name: Cytotoxicity against human OVCAR5 cells assessed as growth inhibition
Type: functional
measurement-context: OVCAR-5
# value in µM; strip the unit string

According to the records, this compound Cc1cc(/C=C2\CCc3c(n(C)c4ccccc34)C2=O)cc(C)c1O displays GI50 of 5.1

According to the records, this compound Cc1cc(/C=C2\Cc3c([nH]c4ccccc34)C2=O)cc(C)c1O displays GI50 of 11.1

According to the records, this compound Cc1cc(/C=C2\CCc3c([nH]c4ccccc34)C2=O)cc(C)c1O displays GI50 of 2.35

According to the records, this compound COc1cc2c(c(N)c1OC)C(=O)/C(=C\c1cc(C)c(O)c(C)c1)C2 [INDANOCINE] displays GI50 of 0.63

###

assay-name: Cytotoxicity against human OVCAR4 cells assessed as growth inhibition
Assay type: functional
measurement-context: OVCAR-4
Kindly supply the reported GI50 values for the records listed here.
# value in µM; strip the unit string

According to the records, this compound Cc1cc(/C=C2\Cc3c([nH]c4ccccc34)C2=O)cc(C)c1O displays GI50 of 10.2

According to the records, this compound Cc1cc(/C=C2\CCc3c([nH]c4ccccc34)C2=O)cc(C)c1O displays GI50 of 1.35

According to the records, this compound Cc1cc(/C=C2\CCc3c(n(C)c4ccccc34)C2=O)cc(C)c1O displays GI50 of 3.87

According to the records, this compound COc1cc2c(c(N)c1OC)C(=O)/C(=C\c1cc(C)c(O)c(C)c1)C2 displays GI50 of 7.94

###

Kindly supply the reported GI50 values for the records listed here.
Test system: SN12C
assay-name: Cytotoxicity against human SN12C cells assessed as growth inhibition
Format: functional
# value in nM; strip the unit string

According to the records, this compound Cc1cc(/C=C2\CCc3c([nH]c4ccccc34)C2=O)cc(C)c1O displays GI50 of 620

According to the records, this compound COc1cc2c(c(N)c1OC)C(=O)/C(=C\c1cc(C)c(O)c(C)c1)C2 displays GI50 of 10

According to the records, this compound Cc1cc(/C=C2\Cc3c([nH]c4ccccc34)C2=O)cc(C)c1O displays GI50 of 620

According to the records, this compound Cc1cc(/C=C2\CCc3c(n(C)c4ccccc34)C2=O)cc(C)c1O displays GI50 of 720

###

Kindly supply the reported GI50 values for the records listed here.
Test system: COLO 205
assay-name: Cytotoxicity against human COLO205 cells assessed as growth inhibition
Assay type: functional
# value in µM; strip the unit string

According to the records, this compound Cc1cc(/C=C2\Cc3c([nH]c4ccccc34)C2=O)cc(C)c1O displays GI50 of 19.5

According to the records, this compound Cc1cc(/C=C2\CCc3c([nH]c4ccccc34)C2=O)cc(C)c1O displays GI50 of 14.2

According to the records, this compound Cc1cc(/C=C2\CCc3c(n(C)c4ccccc34)C2=O)cc(C)c1O displays GI50 of 22.9

According to the records, this compound COc1cc2c(c(N)c1OC)C(=O)/C(=C\c1cc(C)c(O)c(C)c1)C2 displays GI50 of 5.01

###

Test system: HT-29
assay-name: Cytotoxicity against human HT-29 cells assessed as growth inhibition
Type: functional
quantity-kind: GI50

According to the records, this molecule COc1cc2c(c(N)c1OC)C(=O)/C(=C\c1cc(C)c(O)c(C)c1)C2 displays GI50 of 2.51 µM

According to the records, this molecule Cc1cc(/C=C2\CCc3c(n(C)c4ccccc34)C2=O)cc(C)c1O displays GI50 of 4.18 µM

According to the records, this molecule Cc1cc(/C=C2\CCc3c([nH]c4ccccc34)C2=O)cc(C)c1O displays GI50 of 4.32 µM

According to the records, this molecule Cc1cc(/C=C2\Cc3c([nH]c4ccccc34)C2=O)cc(C)c1O displays GI50 of 15.8 µM

Just for reference, ChEMBL document CHEMBL3217497 is where these values come from.
